The measured values listed here are drawn from PubChem BioAssay AID504520.

- target desc: Platelet-activating factor acetylhydrolase 2, cytoplasmic (Mus musculus) (UniProt Q8VDG7)
- Sequence (Q8VDG7 whole entry, looked up): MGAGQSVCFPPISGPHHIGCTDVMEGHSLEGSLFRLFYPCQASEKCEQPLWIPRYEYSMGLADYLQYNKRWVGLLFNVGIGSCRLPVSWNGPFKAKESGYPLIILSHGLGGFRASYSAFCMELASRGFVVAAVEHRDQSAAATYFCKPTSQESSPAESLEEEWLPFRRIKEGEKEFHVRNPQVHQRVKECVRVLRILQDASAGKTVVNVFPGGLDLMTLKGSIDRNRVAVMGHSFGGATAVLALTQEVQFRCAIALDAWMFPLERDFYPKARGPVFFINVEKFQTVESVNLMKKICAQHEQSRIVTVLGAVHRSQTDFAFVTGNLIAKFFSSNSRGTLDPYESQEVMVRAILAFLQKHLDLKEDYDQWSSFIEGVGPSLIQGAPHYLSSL
- protocol summary: LYPLA1 inhibition and serine hydrolase selectivity, late-stage follow-up, fluorescence, gel-based ABPP, mouse proteome (AID 504520);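 further: soluble proteome from BW5147 murine T cells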
- experimental parameters: FP-rhodamine fluorescence, PAFAH2, at 0.75 µM, stronger effect = higher value
test readout: inhibition (%)

a = COCC1CCCCN1C(=O)n1ncc(C(O)(c2ccccc2)c2ccccc2)n1 (stereo not given)
b = CN(C(=O)n1ncc(C(O)(c2ccccc2)c2ccccc2)n1)c1ccccc1
c = O=C(OC(c1ccccc1)c1cnn(C(=O)N2CCCCC2)n1)N1CCCCC1 (stereo not given)
d = O=C(N(c1ccccc1)c1ccccc1)n1ncc(-c2cc(F)cc(F)c2)n1
[Q] Please give the order of these molecules when sorted by inhibition, largest value leading. Present the labels in the sequence the task asks for.
[A] c, d, b, a
(c: 100%, d: 50%, b: 25%, a: 0%)

P = O=C(N1CCCC(Cc2ccccc2)C1)n1cc(C(O)(c2ccccc2)c2ccccc2)nn1 (stereo not given)
Q = O=C(N(c1ccccc1)c1ccccc1)n1ncc(-c2ccc(Oc3ccccc3)cc2)n1
R = O=C(N(c1ccccc1)c1ccccc1)n1ncc(C(O)(c2ccccc2)c2ccccc2)n1
S = COc1ccc2cc(-c3cnn(C(=O)N(c4ccccc4)c4ccccc4)n3)ccc2c1
[Q] List items by inhibition in falling order. Lab note: record answer as labels in requested order.
[A] Q, S, R, P

a = O=C(N1CCCCC1)n1ncc(C(O)c2ccccc2)n1 (stereo not given)
b = O=C(N(c1ccccc1)c1ccccc1)n1ncc(-c2ccc(-c3ccccc3)cc2)n1
c = CC1CCN(C(=O)n2ncc(C(O)(c3ccccc3)c3ccccc3)n2)CC1
[Q] Form: Sort by [inhibition] Order [ ascending ] Provide the labels, sequenced as the question asks.
[A] a, c, b
(a: 0%, c: 25%, b: 75%)
